target: HPK1 (Homo sapiens); construct: A HiBiT tag was introduced by CRISPR on the N terminus of HPK1 in Jurkat cells; host or cells: Jurkat (ATCC TIB-152), monoclonal CRISPR HiBiT knock-in line; test: HPK1 Cellular HiBiT Degradation Assay; type: cell-based; conditions: HiBiT-tagged HPK1 Jurkat cells, 24 hours, 10 uM to 0.1 nM; Dmax = 100 minus lowest % HPK1 remaining vs DMSO vehicle
For each entry below, report its Dmax value.

[Q] What does the data say about its Dmax? Entry: Cc1cc(F)c(Nc2nc(-c3ccc4c(c3)N([C@H]3C[C@@H](N5CCCCC5)C3)C(=O)C43CCN(C(=O)CCCCCCCNc4ccc5c(c4)C(=O)N(C4CCC(=O)NC4=O)C5=O)CC3)cc3ncn(C(C)C)c23)cc1C(=O)NC(C)C (stereo partly shown)
[A] < 45%

[Q] What does the data say about its Dmax? Entry: Cc1cc(F)c(Nc2nc(-c3ccc4c(c3)N([C@H]3C[C@@H](N5CCCCC5)C3)C(=O)C43CCN(C(=O)CC4CCCN(CC5CCN(c6cccc7c6C(=O)N(C6CCC(=O)NC6=O)C7=O)C5)C4)CC3)cc3ncn(C(C)C)c23)cc1C(=O)NC(C)C (stereo partly shown)
[A] > 65%

[Q] What does the data say about its Dmax? Entry: Cc1cc(F)c(Nc2nc(-c3ccc4c(c3)N([C@H]3C[C@@H](N5CCCCC5)C3)C(=O)C43CCN(C(=O)C4CCN(C(=O)C5CCC(Nc6cccc7c6C(=O)N(C6CCC(=O)NC6=O)C7=O)CC5)C4)CC3)cc3ncn(C(C)C)c23)cc1C(=O)NC(C)C (stereo partly shown)
[A] 45 to 65%

[Q] What does the data say about its Dmax? Entry: Cc1cc(F)c(Nc2nc(-c3ccc4c(c3)N(C3CC(N5CCCCC5)C3)C(=O)C43CCN(C(=O)CCCCCCCCCNc4ccc5c(c4)C(=O)N(C4CCC(=O)NC4=O)C5=O)CC3)cc3ncn(C(C)C)c23)cc1C(=O)NC(C)C (stereo not shown)
[A] < 45%

----------
biological target: HPK1 (Homo sapiens, UniProt Q92918); construct: A HiBiT tag was introduced by CRISPR on the N terminus of HPK1 in Jurkat cells; host or cells: Jurkat (ATCC TIB-152), monoclonal CRISPR HiBiT knock-in line; assay: HPK1 Cellular HiBiT Degradation Assay; assay type: cell-based; conditions: HiBiT-tagged HPK1 Jurkat cells, 24 hours, 10 uM to 0.1 nM; Dmax = 100 minus lowest % HPK1 remaining vs DMSO vehicle
Sequence (Q92918 whole entry): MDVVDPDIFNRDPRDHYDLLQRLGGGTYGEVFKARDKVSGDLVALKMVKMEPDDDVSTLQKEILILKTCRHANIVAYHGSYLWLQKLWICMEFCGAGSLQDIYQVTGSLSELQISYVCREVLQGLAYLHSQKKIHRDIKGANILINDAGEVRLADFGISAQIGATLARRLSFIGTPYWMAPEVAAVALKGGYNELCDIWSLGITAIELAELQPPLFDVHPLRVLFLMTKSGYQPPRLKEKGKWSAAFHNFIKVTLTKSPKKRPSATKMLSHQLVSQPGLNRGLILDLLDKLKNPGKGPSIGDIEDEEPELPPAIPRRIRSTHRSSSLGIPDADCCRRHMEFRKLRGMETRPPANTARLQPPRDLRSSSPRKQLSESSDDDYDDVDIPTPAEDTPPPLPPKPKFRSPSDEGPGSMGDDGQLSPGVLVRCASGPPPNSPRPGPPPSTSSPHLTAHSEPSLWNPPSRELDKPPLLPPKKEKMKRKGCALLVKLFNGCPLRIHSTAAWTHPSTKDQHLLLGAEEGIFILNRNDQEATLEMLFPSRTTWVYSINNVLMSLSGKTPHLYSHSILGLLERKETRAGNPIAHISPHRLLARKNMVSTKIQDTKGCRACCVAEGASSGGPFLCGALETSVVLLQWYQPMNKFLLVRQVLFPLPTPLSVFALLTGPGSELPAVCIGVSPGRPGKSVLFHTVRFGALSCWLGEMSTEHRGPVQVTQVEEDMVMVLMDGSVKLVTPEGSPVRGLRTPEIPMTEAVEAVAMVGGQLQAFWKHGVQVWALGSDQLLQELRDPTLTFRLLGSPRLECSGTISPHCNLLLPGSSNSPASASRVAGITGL
Property measured: Dmax

[Q] What does the data say about its Dmax? Entry: Cc1cc(F)c(Nc2nc(-c3ccc4c(c3)N([C@H]3C[C@@H](N5CCCCC5)C3)C(=O)C43CCN(CCOCCOCCOCCOCCOCCOCCOCCNc4cccc5c4C(=O)N(C4CCC(=O)NC4=O)C5=O)CC3)cc3ncn(C(C)C)c23)cc1C(=O)NC(C)C (stereo partly shown)
[A] > 65%

[Q] What does the data say about its Dmax? Entry: Cc1cc(F)c(Nc2nc(-c3ccc4c(c3)N([C@H]3C[C@@H](N5CCCCC5)C3)C(=O)C43CCN(C(=O)[C@H]4CC[C@@H](C(=O)N5CCC(Oc6cccc7c6C(=O)N(C6CCC(=O)NC6=O)C7=O)CC5)CC4)CC3)cc3ncn(C(C)C)c23)cc1C(=O)NC(C)C (stereo partly shown)
[A] 45 to 65%

[Q] What does the data say about its Dmax? Entry: Cc1cc(F)c(Nc2nc(-c3ccc4c(c3)N([C@H]3C[C@@H](N5CCCCC5)C3)C(=O)C43CCN(C(=O)[C@@H]4CCN(C(=O)N5CCC(Nc6cccc7c6C(=O)N(C6CCC(=O)NC6=O)C7=O)CC5)C4)CC3)cc3ncn(C(C)C)c23)cc1C(=O)NC(C)C (stereo partly shown)
[A] 45 to 65%

[Q] What does the data say about its Dmax? Entry: Cc1cc(F)c(Nc2nc(-c3ccc4c(c3)N([C@H]3C[C@@H](N5CCCCC5)C3)C(=O)C43CCN(C(=O)[C@@H]4CCN(C(=O)[C@H]5CC[C@H](N(C)c6cccc7c6C(=O)N(C6CCC(=O)NC6=O)C7=O)CC5)C4)CC3)cc3ncn(C(C)C)c23)cc1C(=O)NC(C)C (stereo partly shown)
[A] > 65%

----------
Target: HPK1 (Homo sapiens, UniProt Q92918)
Construct: A HiBiT tag was introduced by CRISPR on the N terminus of HPK1 in Jurkat cells; host or cells: Jurkat (ATCC TIB-152), monoclonal CRISPR HiBiT knock-in line
Assay: HPK1 Cellular HiBiT Degradation Assay
Format: cell-based
Settings: HiBiT-tagged HPK1 Jurkat cells, 24 hours, 10 uM to 0.1 nM; Dmax = 100 minus lowest % HPK1 remaining vs DMSO vehicle
Procedure: HiBiT HPK1 Jurkat cell lines were used to evaluate the total protein levels of HPK1 in a robust human cellular high throughput format. […] These decreases were not a result of cytotoxicity measured by a parallel viability assessment (CTG). […] A HiBiT tag was introduced by CRISPR on the N terminus of HPK1 in Jurkat cells (ATCC® TIB-152) to allow quantitation of HPK1 protein levels in a monoclonal human cell line. […] Percent HPK1 remaining per sample was calculated as follows: […]
Property measured: Dmax

[Q] What does the data say about its Dmax? Entry: Cc1cc(F)c(Nc2nc(-c3ccc4c(c3)N([C@H]3C[C@@H](N5CCCCC5)C3)C(=O)C43CCN(C(=O)C[C@H]4CCN(C(=O)[C@H]5CC[C@H](Nc6cccc7c6C(=O)N(C6CCC(=O)NC6=O)C7=O)CC5)C4)CC3)cc3ncn(C(C)C)c23)cc1C(=O)NC(C)C (stereo partly shown)
[A] < 45%

[Q] What does the data say about its Dmax? Entry: Cc1cc(F)c(Nc2nc(-c3ccc4c(c3)N(C3CC(N5CCCCC5)C3)C(=O)C43CCN(C(=O)CCOCCOCCOCCNc4ccc5c(c4)C(=O)N(C4CCC(=O)NC4=O)C5=O)CC3)cc3ncn(C(C)C)c23)cc1C(=O)NC(C)C (stereo not shown)
[A] < 45%

[Q] What does the data say about its Dmax? Entry: CC(=O)N1CCC2(CC1)C(=O)N([C@H]1C[C@@H](N3CCC[C@@H](C(=O)NCCCCCCCCCNc4ccc5c(c4)C(=O)N(C4CCC(=O)NC4=O)C5=O)C3)C1)c1cc(-c3cc4ncn(C(C)C)c4c(Nc4cc(C(=O)NC(C)C)c(C)cc4F)n3)ccc12 (stereo partly shown)
[A] < 45%

[Q] What does the data say about its Dmax? Entry: Cc1cc(F)c(Nc2nc(-c3ccc4c(c3)N([C@H]3C[C@@H](N5CCCCC5)C3)C(=O)C43CCN(C(=O)[C@H]4CCN(C[C@H]5CC[C@H](Nc6cccc7c6C(=O)N(C6CCC(=O)NC6=O)C7=O)CC5)C4)CC3)cc3ncn(C(C)C)c23)cc1C(=O)NC(C)C (stereo partly shown)
[A] > 65%

----------
target: HPK1 (Homo sapiens); construct: A HiBiT tag was introduced by CRISPR on the N terminus of HPK1 in Jurkat cells; host or cells: Jurkat (ATCC TIB-152), monoclonal CRISPR HiBiT knock-in line; experiment: HPK1 Cellular HiBiT Degradation Assay; type: cell-based; conditions: HiBiT-tagged HPK1 Jurkat cells, 24 hours, 10 uM to 0.1 nM; Dmax = 100 minus lowest % HPK1 remaining vs DMSO vehicle
For each entry below, report its Dmax value.

[Q] Provide the documented Dmax with HPK1 (Homo sapiens) as the system for Cc1cc(F)c(Nc2nc(-c3ccc4c(c3)N([C@H]3C[C@@H](N5CCCCC5)C3)C(=O)C43CCN(C(=O)c4cnn(C[C@H]5CC[C@H](Nc6cccc7c6C(=O)N(C6CCC(=O)NC6=O)C7=O)CC5)c4)CC3)cc3ncn(C(C)C)c23)cc1C(=O)NC(C)C (some centres unmarked)
[A] 45 to 65%

[Q] Provide the documented Dmax with HPK1 (Homo sapiens) as the system for Cc1cc(F)c(Nc2nc(-c3ccc4c(c3)N([C@H]3C[C@@H](N5CCCCC5)C3)C(=O)C43CCN(C(=O)OC4CCN(C(=O)C5CCN(c6ccc7c(c6)C(=O)N(C6CCC(=O)NC6=O)C7=O)CC5)CC4)CC3)cc3ncn(C(C)C)c23)cc1C(=O)NC(C)C (some centres unmarked)
[A] > 65%

----------
For each entry below, report its Dmax value.
target: HPK1 (Homo sapiens); construct: A HiBiT tag was introduced by CRISPR on the N terminus of HPK1 in Jurkat cells; host or cells: Jurkat (ATCC TIB-152), monoclonal CRISPR HiBiT knock-in line; experiment: HPK1 Cellular HiBiT Degradation Assay; type: cell-based; conditions: HiBiT-tagged HPK1 Jurkat cells, 24 hours, 10 uM to 0.1 nM; Dmax = 100 minus lowest % HPK1 remaining vs DMSO vehicle

[Q] Provide the documented Dmax with HPK1 (Homo sapiens) as the system for Cc1cc(F)c(Nc2nc(-c3ccc4c(c3)N([C@H]3C[C@@H](N5CCCCC5)C3)C(=O)C43CCN(C(=O)CN4CCN(c5ccc6c(c5)C(=O)N(C5CCC(=O)NC5=O)C6=O)CC4)CC3)cc3ncn(C(C)C)c23)cc1C(=O)NC(C)C (mixture of isomers)
[A] < 45%

[Q] Provide the documented Dmax with HPK1 (Homo sapiens) as the system for Cc1cc(F)c(Nc2nc(-c3ccc4c(c3)N([C@H]3C[C@@H](N5CCCCC5)C3)C(=O)C43CCN(C(=O)CCOCCOCCOCCOCCOCCNc4cccc5c4C(=O)N(C4CCC(=O)NC4=O)C5=O)CC3)cc3ncn(C(C)C)c23)cc1C(=O)NC(C)C (some centres unmarked)
[A] 45 to 65%

Data credit: patent US11739101B2
